- Protocol: Binding affinity at human histamine H3
The following compounds are listed with their measured log10(Ki) values.
Log10 applied to Ki; unit prior to transform: nM.

Worked cases, log10(Ki) given:
- Compound: "CSc1ccc(C2CN(C)Cc3cc(Oc4ccc(CN5CCC(F)CC5)cn4)ccc32)cc1 (configuration not stated)"
  Endpoint Result: 2.04
- Compound: "CSc1ccc(C2CN(C)Cc3cc(Oc4ccc(CN5CCOCC5)cn4)ccc32)cc1 (configuration not stated)"
  Endpoint Result: 2.41
- Compound: "CSc1ccc(C2CN(C)Cc3cccc(Oc4cccc(CN5CCCCC5)c4)c32)cc1 (configuration not stated)"
  Endpoint Result: 2.40
- Compound: "CN(C)CCC(Oc1ccccc1)c1ccc(OCCCN2CCCCC2)cc1 (configuration not stated)"
  Endpoint Result: -0.14
- Compound: "CSc1ccc(C2CN(C)Cc3cc(Oc4cc(CN5CCCCC5)ccn4)ccc32)cc1 (configuration not stated)"
  Endpoint Result: 1.54

Req: Please report the recorded log10(Ki) for COc1ccc(C2CN(C)Cc3cc(OCCCN4CCCCC4)ncc32)cc1 (configuration not stated) .
Resp: 1.08

Req: # input compound: CSc1ccc(C2CN(C)Cc3cccc(Oc4cncc(CN5CCCCC5)c4)c32)cc1 (configuration not stated) ; wanted: its log10(Ki)
Resp: 2.71
